Cited source for all entries: PubChem BioAssay AID1851

- STUDY_SYSTEM: Cytochrome P450 2D6 (Homo sapiens)
- ASSAY_PROCEDURE: Cytochrome panel assay with activity outcomes
- MEASUREMENT_CONDITIONS: recombinant CYP, pro-luciferin dealkylation, luminescence, p450-cyp2d6; series mostly up to 57.1 µM
About 2,600 (16%) of roughly 16,000 compounds were called active. Not shown: some 20% with an inconclusive outcome. Calls follow the shape of the dose curve; as a rule, active = well fitted curve in the direction sought with a large enough effect; inconclusive = small, poorly fitted or top-dose-only effect, or effect the other way; inactive = no such curve, though single readings can be large or run the other way. What follows is part of a selection rich in actives, with near analogues and random picks from the rest.
# output must be one of True (active), False (inactive)

- STRUCTURE_AS_SMILES: "N[C@@H](Cn1ccc(=O)n(Cc2ccc(C(=O)O)cc2)c1=O)C(=O)O"
  ANSWER_LABEL: "False"

Query block: Hi team, can someone confirm the assay call for `O[C@@H]1[C@H](O)[C@H]2[C@@H](O)CCN2C[C@@H]1O` ?
Result block: False

Query block: Hi team, can someone confirm the assay call for `CCCCN1C(=O)/C(=C/c2ccc(N(C)C)cc2)C(=O)N(Cc2ccco2)C1=O` ?
Result block: False

Query block: Hi team, can someone confirm the assay call for `C[n+]1c(/C=C\c2ccc(O)c3ncccc23)[se]c2ccccc21` ?
Result block: True

Query block: Hi team, can someone confirm the assay call for `O=C1c2ccccc2-c2cc([N+](=O)[O-])c([N+](=O)[O-])cc21` ?
Result block: True

----------
- STUDY_SYSTEM: Cytochrome P450 2D6 (Homo sapiens)
- ASSAY_PROCEDURE: Cytochrome panel assay with activity outcomes
- MEASUREMENT_CONDITIONS: recombinant CYP, pro-luciferin dealkylation, luminescence, p450-cyp2d6; series mostly up to 57.1 µM
The whole screen tested about 16,000 compounds, of which about 2,600 (16%) were called active. Inconclusive results (about 20%) are left out. The call rests on the fitted dose curve; in most records, active means well fitted curve in the direction sought with a large enough effect; inconclusive means small, poorly fitted or top-dose-only effect, or effect the other way; inactive means no such curve, though single readings can be large or run the other way. Many of the other results were omitted from the sample, so actives are more common in it than they were.
# output must be one of active, inactive

Record excerpt, results attached:
- MOLECULE: "O=C1Nc2ccc(I)cc2/C1=C/c1cc(Br)c(O)c(Br)c1"
  ANSWER_LABEL: "inactive"
- MOLECULE: "N#Cc1cccc(NC(=O)N2CCCC3(CCN(C(=O)Oc4ccccc4)CC3)C2)c1"
  ANSWER_LABEL: "inactive"
- MOLECULE: "CN(C)C(=O)Oc1ccc[n+](C)c1"
  ANSWER_LABEL: "inactive"
- MOLECULE: "NC(N)=NN=Cc1c(Cl)cccc1Cl"
  ANSWER_LABEL: "active"
- MOLECULE: "CCN(CC)c1ncnc2c1ncn2[C@@H]1O[C@@H](COP(=O)(O)OP(=O)(O)C(Br)(Br)P(=O)(O)O)[C@H](O)[C@H]1O"
  ANSWER_LABEL: "active"
- MOLECULE: "CC[C@]1([C@H]2O[C@@H]([C@@H]3O[C@](O)(CO)[C@@H](C)C[C@H]3C)C[C@H]2C)CC[C@@H]([C@]2(C)CC[C@@]3(C[C@@H](O)[C@@H](C)[C@@H]([C@H](C)[C@H](OC)[C@H](C)C(=O)O)O3)O2)O1"
  ANSWER_LABEL: "inactive"
- MOLECULE: "Nc1ncnc2c1ncn2[C@@H]1O[C@@H](COP(=O)(O)CP(=O)(O)OP(=O)(O)O)[C@H](O)[C@@H]1O"
  ANSWER_LABEL: "inactive"
- MOLECULE: "CC[C@]1(C2=NCCN2)Cc2ccccc2O1"
  ANSWER_LABEL: "active"
- MOLECULE: "Cc1ccc2c(c1)C1CN(C)CCC1N2C(=O)Nc1cccc(Cl)c1 (stereo not given)"
  ANSWER_LABEL: "active"

Consider now this further molecule.
Query block: Hi team, can someone confirm the assay call for `CCN(CC)c1ncnc2c1ncn2[C@@H]1O[C@@H](COP(=O)(O)OP(=O)(O)C(Br)(Br)P(=O)(O)O)[C@H](O)[C@@H]1O` ?
Result block: inactive
